Catalogue of GI50 readings, one per entry.
Tested on: SNB-19
METHOD NOTES: NCI tumour cell line growth inhibition, 48 h
Activity calls are given as the source filed them. Rule as the data show it: active = GI50 up to about 1.1 µM and inactive = higher.

COc1ccc(/C=N/N=C(\N)NO)cc1O: > 100 µM (inactive)
CC(C)(Oc1ccc(-c2cccc3ccccc23)cc1)C(=O)O: > 100 µM (inactive)

Next up:
Entry `O=S(=O)(OI(OI(OS(=O)(=O)C(F)(F)F)c1ccccc1)c1ccccc1)C(F)(F)F` : reported GI50 = ?
44.3 µM (inactive)

====

Tested on: T47D
METHOD NOTES: NCI tumour cell line growth inhibition, 48 h
Activity calls are given as the source filed them. Rule as the data show it: active = GI50 up to about 1.1 µM and inactive = higher.
Write down the outcome that applies. Available outcomes: true (1) for active, false (0) for inactive

Please review the following examples before continuing.
CCOP(=O)(O)CC1OC(CO)C(O)C1O (stereo not given): false (0)
O=C(CSCC(=O)N/N=C/c1ccc(F)cc1)N/N=C/c1ccc(F)cc1: false (0)
CC1CC[C@]2(C(=O)O)CCC3(C)C(=C2[C@H]1C)C=CC1[C@@]2(C)CC[C@H](O)C(C)(C)C2CC[C@]13C (stereo not given in full): false (0)
COC(=O)C1=C(CCCCO[Si](C)(C)C(C)(C)C)NC(=O)N2[C@@H](CCOCc3ccccc3)CC[C@H]12: false (0)

Now look at this entry.
Outcome logged for `O=C1O/C(=C\c2ccc(O)cc2)C(c2ccc(O)c(Cl)c2)=C1Cl` in this assay:
false (0)

Reference source for all entries: ChEMBL document CHEMBL1201862
